Biological target: Alcalase (Bacillus licheniformis)
Construct: purchased Novo Nordisk A/S
Sequence (P00780 106-379): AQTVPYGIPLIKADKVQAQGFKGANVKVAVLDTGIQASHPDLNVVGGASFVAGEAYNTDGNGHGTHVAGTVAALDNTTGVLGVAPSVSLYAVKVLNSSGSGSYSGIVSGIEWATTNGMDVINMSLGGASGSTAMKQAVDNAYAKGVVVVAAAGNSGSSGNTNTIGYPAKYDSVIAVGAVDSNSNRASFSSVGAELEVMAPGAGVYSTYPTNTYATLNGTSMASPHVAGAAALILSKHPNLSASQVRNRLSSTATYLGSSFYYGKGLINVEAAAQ
Assay: Determination of Ki, inhibition of Alcalase
Assay type: biochemical
PARAMETER: pKi
Scale explanation: pKi corresponds to minus log10 of a concentration expressed in moles per litre.

// lookup pKi for OB(O)O [Boric acid]
1.52
